TEST_READOUT: log10 IC50 (log10 of the value in µM)
The common logarithm of IC50 in µM is what is listed.

Look up UniProtKB P01116 data: log10 IC50 of `C#Cc1cccc2cc(O)cc(N(C)c3nc4c(N5CC6CCC(C5)N6)nc(OC[C@@]56CCCN5C[C@H](F)C6)nc4s3)c12` , then report it.
Sequence (P01116 1-188 isoform P01116-2): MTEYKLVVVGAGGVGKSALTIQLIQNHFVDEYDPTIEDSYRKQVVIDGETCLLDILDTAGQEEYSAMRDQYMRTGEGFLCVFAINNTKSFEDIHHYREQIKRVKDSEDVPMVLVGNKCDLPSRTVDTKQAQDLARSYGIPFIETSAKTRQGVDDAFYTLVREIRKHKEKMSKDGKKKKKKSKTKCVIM
-1.21

Look up UniProtKB P01116 data: log10 IC50 of `C#Cc1c(F)ccc2cc(O)cc(Oc3nc4c(N5C[C@H]6CC[C@@H](C5)N6)nc(OCC56CCCN5CCC6)nc4s3)c12` , then report it.
-1.16

Look up UniProtKB P01116 data: log10 IC50 of `Oc1cc(Oc2nc3c(N4C[C@H]5CC[C@@H](C4)N5)nc(OCC45CCCN4CCC5)nc3s2)c2c(F)cccc2c1` , then report it.
0.91

Look up UniProtKB P01116 data: log10 IC50 of `CN(c1nc2c(N3CC4CCC(C3)N4)nc(OC[C@@]34CCCN3C[C@H](F)C4)nc2s1)c1cc(O)cc2ccccc12` , then report it.
1.08

Look up UniProtKB P01116 data: log10 IC50 of `C#Cc1c(Cl)ccc2cc(O)cc(Oc3nc4c(N5CC6CCC(C5)N6)nc(OC[C@@]56CCCN5C[C@H](F)C6)nc4s3)c12` , then report it.
-1.02
